protocol description: in vitro
condition notes: human, hela cells, % viability
# maps each entry to its viability at 28.5 h, 10 µM
result type: viability at 28.5 h, 10 µM (%)

| compound | observed result |
| --- | --- |
| CN(C)CCN(C)C(=O)c1ccc(-c2cccc(OC(F)(F)F)c2)nc1N(C)C | 90.3 |
| Nc1cccc(-c2ccc(NCc3cc(F)c(F)c(F)c3)nc2)c1 | 97.2 |
| O=C(Nc1ncc(Cc2ccc(F)cc2)s1)c1csc2c1CCCC2 | 90.2 |
| CN(Cc1cccc2ncccc12)C(=O)c1cc(C2CC2)nn1C | 108 |
| Cc1cc(C)nc(N2CCN(CCC(=O)O)CC2)n1 | 97 |
| COC(=O)c1cccn2cc(CN(CC#N)C3CC3)nc12 | 105 |
| Cc1nc(SCC(=O)O)nc(O)c1Oc1ccccc1 | 103 |
| COC(=O)COc1nccnc1-c1ccc(SC)cc1 | 107 |
| Cc1nn(C)c(C)c1NC(=O)CN1CCN(c2cccc(Cl)c2)CC1 | 81.1 |
| Cc1ncsc1C(=O)N1CCCCC1c1nc2ccccc2[nH]1 (centres unmarked) | 95.9 |
| Cn1nc(C2CC2)cc1C(=O)NCCN1CCc2ccccc21 | 91.5 |
| O=C(O)c1ccc(S(=O)(=O)Nc2ccc(OC3CCCC3)cc2)cc1 | 110 |
| Cc1csc2ncc(C(=O)Nc3ccc(F)c(Cl)c3)c(=O)n12 | 107 |
| Cc1ccn2cc(-c3ccc4c(c3)CC(C)N4S(C)(=O)=O)nc2c1 (centres unmarked) | 84.6 |
| Cc1ccc(C(C)CCN2CC3CCCN3C[C@H]2C)o1 (some centres unmarked) | 101 |
| O=C(c1cccc(C(=O)N(Cc2ccccc2)c2ccccn2)c1)N(Cc1ccccc1)c1ccccn1 | 111 |
| COc1cccc(OCCOc2nsnc2N2CCNCC2)c1 | 110 |
| CS(=O)(=O)c1ccc(-c2cnc(N)c(NCc3ccncc3)n2)cc1 | 105 |
| COc1cccc(-c2noc(C3CCN(CCc4ccccc4)CC3)n2)c1 | 99.7 |
| COc1nccnc1OC1CCN(Cc2ccccc2-c2ccccc2)CC1 | 87.7 |

----------
protocol description: in vitro
condition notes: human, hela cells, % viability

| compound | viability at 28.5 h, 10 µM / % |
| --- | --- |
| Nc1ncc(-c2occc2C=O)nc1-c1ccc(F)c(Cl)c1 | 101 |
| COc1cc(C)ccc1S(=O)(=O)Nc1cccc2cc[nH]c12 | 81.8 |
| CC1=NN(c2ccccc2)C(=O)C1C(=O)c1ccc(Br)cc1 (centres unmarked) | 98.1 |
| COc1cc(OC)nc(Oc2ccccc2C(=O)O)n1 | 84.6 |
| COc1ccc(CN2CCCc3ccccc32)cc1 | 95.6 |

----------
protocol description: in vitro
condition notes: human, hela cells, % viability

| compound | unit spec | viability at 28.5 h, 10 µM |
| --- | --- | --- |
| Cc1ccc(C)n1-c1cccc(C(=O)N2CCn3cnnc3C2)c1 | % | 96.2 |
| CCN(CC(=O)NCc1ccc(F)cc1)S(=O)(=O)c1c(C)n[nH]c1C | % | 93.3 |
| CN1CCN(c2ccc(NC(=S)NC(=O)c3cc(Br)ccc3Cl)cc2)CC1 [CBK266254C] | % | 96.2 |
| Cc1ccc(C)c(NC(=O)N[C@@H](CC(C)C)C(=O)O)c1 | % | 89 |
| CS(=O)(=O)N(Cc1ccco1)Cc1cc2ccccc2nc1O | % | 111 |
| CC(=O)Nc1cnn(-c2ccc(C(=O)N3CCCCC3c3nc4ccccc4[nH]3)cc2)c1 (centres unmarked) | % | 83.3 |
| CC(Cc1ccccn1)NC(=O)Cn1ccnc1 (centres unmarked) | % | 104 |
| CC(C)NC(=O)NC[C@H]1C[C@@H]2CCN1C[C@@H]2c1cc(C2CCCCC2)nn1C | % | 90.8 |
| CCOc1ccccc1C(=O)Nc1cc(C)c2c(=O)oc3ccccc3c2n1 | % | 87.4 |
| COc1ccccc1Oc1ccc(NS(=O)(=O)c2cccc(C(=O)O)c2)cc1 | % | 108 |
| Cc1cc(CNC(=O)N2CCCCC2CO)no1 (centres unmarked) | % | 108 |
| CCOc1cc2c(cc1CN1CCN(Cc3noc(C)n3)CC1)CCC2 | % | 83.1 |
| CCn1c(N2CCC(C(=O)NCC3CC3)CC2)nc2ccccc21 | % | 104 |
| O=[N+]([O-])c1ccccc1OCCNCc1ccccc1 [CBK265511G] | % | 101 |
| O=C(CCN1CCOCC1)Nc1ccc(Cl)cc1 | % | 98.8 |
| O=S(=O)(Oc1ccccc1)c1ccc2c(c1)Cc1cc(S(=O)(=O)Oc3ccccc3)ccc1-2 | % | 88.5 |
| COCCc1nsc(N2CCCC(c3nccs3)C2)n1 (centres unmarked) | % | 92 |
| Cc1cccc(N2CCN(C(=O)C3C4CCC(O4)C3C(=O)O)CC2)c1C (centres unmarked) | % | 90 |
| CC1=CCC2C(=O)N(c3ccccc3)C(=O)C2C1 (centres unmarked) | % | 84.1 |
| O=C(NCCCNC(=O)c1ccc(Cl)cc1Cl)c1ccncc1 | % | 89.7 |
| Cc1cc(/C=N/O)c(C)c(COCc2cc(C)cc(/C=N/O)c2C)c1 | % | 91.2 |
| Cc1ccc(C(=O)N2CCN(S(=O)(=O)c3cccc([N+](=O)[O-])c3)CC2)cc1 | % | 102 |
| CN1C(=O)COc2ccccc2CCCC[C@@H]2[C@H]1CCCN2CCO | % | 103 |
| Cc1nc2c(OCCN3C(=O)c4ccccc4C3=O)cccn2c1N(C)C(=O)C1CCCCC1 | % | 95 |
| CC(C)(C)OC(=O)N1CCC(C(=O)NCc2ccccn2)CC1 | % | 103 |
| Cc1cc2ccccc2n1CCCNS(=O)(=O)c1ccc2[nH]c(=O)[nH]c(=O)c2c1 | % | 96 |
| CC1(C)CC(NC(=O)/C=C/C(=O)O)CC(C)(C)N1 | % | 88.4 |
| COc1ccc(NC(=O)CSc2nc3c(c(-c4cccs4)c2C#N)CN(C)CC3)cc1OC | % | 103 |
| Nc1ccc(Oc2nc(Oc3ccc(N)cc3)c(F)c(Oc3ccc(N)cc3)c2F)cc1 [CBK266397C] | % | 110 |
| COc1ccc(C(=O)NNC(=O)/C=C/c2ccc(C(C)C)cc2)cc1 | % | 101 |
| Cc1ccc(S(=O)(=O)N2Cc3ccccc3CC2C(=O)Nc2sc3c(c2C#N)CCCC3)cc1 (centres unmarked) | % | 97.9 |
| CC(C)Nc1cc(Sc2ccccc2N)ncn1 | % | 91.6 |
| O=S(=O)(c1ccccc1)c1cncc(N2CCNCC2)n1 [CBK051078C] | % | 89.3 |
| Cc1nc(-c2ccccc2)sc1C(=O)C1=C(O)C(=O)N(CCN(C)C)C1c1ccc(Cl)cc1 (centres unmarked) | % | 110 |
| Cc1c(C(=O)NC2(c3ccc(F)cc3)CCCC2)cnn1C | % | 90.9 |
| COc1ccc(C(=O)NNS(=O)(=O)N(C)C)cc1OC | % | 99.1 |
| Cc1cccc(CNc2nccnc2-c2cccc(N)c2)c1 | % | 92.4 |
| COc1nccc(NC(c2cnn(C)c2)[C@H]2C[C@H](O)C2)c1C#N (some centres unmarked) | % | 94 |
